Tested on: biotinyl-Trp-oxazolone
Test: self-aminoacylation, catalytic enhancement (BWO) (fold over background); higher = more active; k-Seq, kA / k0A0; sequences stand for … in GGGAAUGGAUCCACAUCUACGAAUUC…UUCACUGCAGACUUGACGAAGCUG
Variants at the floor of the assay were thinned out.
measure: self-aminoacylation
Respond numerically, and do not add a unit to the figure.

Input line: Please give the documented self-aminoacylation of AUGCACCUAGGUCCUCGGGUG [Fam2.2 aminoacylation ribozyme variant]
Output line: 5.64

Input line: Please give the documented self-aminoacylation of AUUCACAUAAGUCAUCGGGUG [Fam2.2 aminoacylation ribozyme variant]
Output line: 12.4

Input line: Please give the documented self-aminoacylation of AUUACCCUGGUCAGCGCGUGA [Fam2.1 aminoacylation ribozyme variant]
Output line: 6.87

Input line: Please give the documented self-aminoacylation of UAGUUUGCUAAUAGUCGCUAG [Fam3.1 aminoacylation ribozyme variant]
Output line: 1.08

---
Input line: Please give the documented self-aminoacylation of AACUUUGCUAAUAGUCGCAUG [Fam3.1 aminoacylation ribozyme variant]
Output line: 2.85

Input line: Please give the documented self-aminoacylation of AUUCUCCUAGGUCAACGGGUG [Fam2.2 aminoacylation ribozyme variant]
Output line: 5.38

Input line: Please give the documented self-aminoacylation of AUUCACCUAGGUCAUGGGGCG [Fam2.2 aminoacylation ribozyme variant]
Output line: 2.15

Input line: Please give the documented self-aminoacylation of AUUACGCUGGUGAUCGAGUGA [Fam2.1 aminoacylation ribozyme variant]
Output line: 5.45

====

Test system: biotinyl-Leu-oxazolone
Assay: self-aminoacylation, catalytic enhancement (BLO) (fold over background); higher = more active; k-Seq, kA / k0A0; sequences stand for … in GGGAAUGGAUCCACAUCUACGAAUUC…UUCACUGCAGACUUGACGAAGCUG
Fewer inactive variants are shown than the library holds.
A collection of sequences and their measured self-aminoacylation
Respond numerically, and do not add a unit to the figure.

The examples below pair each entry with its known result.
Input line: Please give the documented self-aminoacylation of AUUCACUUAGGUCAUCGGGUC [Fam2.2 aminoacylation ribozyme variant]
Output line: 0.969

Input line: Please give the documented self-aminoacylation of UUACUUCAAACAAUCGGACUG [Fam1A.1 aminoacylation ribozyme variant]
Output line: 0.969

Input line: Please give the documented self-aminoacylation of CGACUUCAAACAAUCGGUCUU [Fam1A.1 aminoacylation ribozyme variant]
Output line: 1.77

Pending sequence:
Input line: Please give the documented self-aminoacylation of AUUACGCUGGUCAUCGAGUGA [Fam2.1 aminoacylation ribozyme variant]
Output line: 4.69

====

Test system: biotinyl-Trp-oxazolone
Test: self-aminoacylation, catalytic enhancement (BWO) (fold over background); higher = more active; k-Seq, kA / k0A0; sequences stand for … in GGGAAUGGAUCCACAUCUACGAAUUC…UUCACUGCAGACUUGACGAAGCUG
Variants at the floor of the assay were thinned out.
measure: self-aminoacylation
Respond numerically, and do not add a unit to the figure.

The examples below pair each entry with its known result.
Input line: Please give the documented self-aminoacylation of AAGUGUGCUAAUAGUCACAAG [Fam3.1 aminoacylation ribozyme variant]
Output line: 3.91

Input line: Please give the documented self-aminoacylation of AUUCCCCUGGUAAUCGAGUGA [Fam2.1 aminoacylation ribozyme variant]
Output line: 7.35

Input line: Please give the documented self-aminoacylation of AAGUUUGCUAACAGUCGCGAG [Fam3.1 aminoacylation ribozyme variant]
Output line: 2.46

Input line: Please give the documented self-aminoacylation of ACUCACCUAGGCCAUCGGGUG [Fam2.2 aminoacylation ribozyme variant]
Output line: 5.91

Input line: Please give the documented self-aminoacylation of AUUCACCUAGGUCAUCGGCUU [Fam2.2 aminoacylation ribozyme variant]
Output line: 3.27

---
Input line: Please give the documented self-aminoacylation of AUUCACCUAGGUCAUCGGAGG [Fam2.2 aminoacylation ribozyme variant]
Output line: 0.621

Input line: Please give the documented self-aminoacylation of AAAUUUGCUCAUAGUCGCAAG [Fam3.1 aminoacylation ribozyme variant]
Output line: 1.56

Input line: Please give the documented self-aminoacylation of AUGUCCCUGGUCAUCGAGUGA [Fam2.1 aminoacylation ribozyme variant]
Output line: 41.4

Input line: Please give the documented self-aminoacylation of AUACACCUAGGUUAUCGGGUG [Fam2.2 aminoacylation ribozyme variant]
Output line: 4.77

Input line: Please give the documented self-aminoacylation of AAGUUUGCCAAUAGUCGUAAG [Fam3.1 aminoacylation ribozyme variant]
Output line: 1.51

Input line: Please give the documented self-aminoacylation of AUUACCGAGGUCAUCGAGUGA [Fam2.1 aminoacylation ribozyme variant]
Output line: 10.8

Input line: Please give the documented self-aminoacylation of AUUACCCUAGUCAUCGAGUAA [Fam2.1 aminoacylation ribozyme variant]
Output line: 0.823

Input line: Please give the documented self-aminoacylation of AUUACCCUGGCCAUCGCGUGA [Fam2.1 aminoacylation ribozyme variant]
Output line: 8.64

Input line: Please give the documented self-aminoacylation of CCACACUUCAAGCCAUCGGGC [Fam1B.1 aminoacylation ribozyme variant]
Output line: 2.1

Input line: Please give the documented self-aminoacylation of AUUACCCUGGACAUGGAGUGA [Fam2.1 aminoacylation ribozyme variant]
Output line: 10.6

Input line: Please give the documented self-aminoacylation of CUACUUCAAACCACCGGUCUG [Fam1A.1 aminoacylation ribozyme variant]
Output line: 1.25

Input line: Please give the documented self-aminoacylation of CAACUUCAAACAAUCGUUCUG [Fam1A.1 aminoacylation ribozyme variant]
Output line: 1.03

Input line: Please give the documented self-aminoacylation of AAGUUUGAUAAAAGUCGCAAG [Fam3.1 aminoacylation ribozyme variant]
Output line: 1.46

Input line: Please give the documented self-aminoacylation of CUACUGCAAACAAUCCGUCUG [Fam1A.1 aminoacylation ribozyme variant]
Output line: 0.876

Input line: Please give the documented self-aminoacylation of AUUCACCCAUGUCAUCGGGUG [Fam2.2 aminoacylation ribozyme variant]
Output line: 5.22

Input line: Please give the documented self-aminoacylation of AUUACCCAGGUCAUCGAGGGA [Fam2.1 aminoacylation ribozyme variant]
Output line: 1.16

Input line: Please give the documented self-aminoacylation of AAGUGUUCUAAUAGUCGCAAG [Fam3.1 aminoacylation ribozyme variant]
Output line: 1.54

Hey, just so you know, these numbers are from the supplement of paper PMC9233669.
